- Test system: brains, heart, liver, muscle, and DRG of the NHPs
- TEST SUMMARY: Maturation of TTM-001 and TTM-002 capsids, NGS enrichment in NHP tissues
- Type: in vivo
- PARTICULARS: NGS fold-enrichment, NHP liver DNA, relative to AAV9 control
Binning scheme for Fold Enrichment relative to AAV9, Liver DNA (NHP): zone 1 = under 0.04 fold, zone 2 = from 0.04 fold up to 0.1 fold, zone 3 = 0.1 fold and over

{"ORDERED RESIDUES": "NTINGSGSPHSKAQNQQT (peptide inserted in AAV capsid)", "LABEL VALUE": "zone 3"}
{"ORDERED RESIDUES": "KTINGSGSPHSKAHVRQT", "LABEL VALUE": "zone 3"}
{"ORDERED RESIDUES": "KTINGTGSPHSKAQNHQI", "LABEL VALUE": "zone 3"}
{"ORDERED RESIDUES": "KTDNGSGSPHSKAHNQQT", "LABEL VALUE": "zone 1"}
{"ORDERED RESIDUES": "KTERLSGSPHSKAQNQQT", "LABEL VALUE": "zone 3"}
{"ORDERED RESIDUES": "KTVNGNGSPHSKAQNQHT", "LABEL VALUE": "zone 2"}
{"ORDERED RESIDUES": "KTINGHDSPHKTGQNQPP", "LABEL VALUE": "zone 2"}
{"ORDERED RESIDUES": "KTINGNGSPHSKAQNPLT", "LABEL VALUE": "zone 1"}
{"ORDERED RESIDUES": "KTINGHDSPHKSGQSVQT", "LABEL VALUE": "zone 2"}
{"ORDERED RESIDUES": "KTINGHDSPHKSGQSVPT", "LABEL VALUE": "zone 2"}
{"ORDERED RESIDUES": "KTINGSGSPHSKALNRQS", "LABEL VALUE": "zone 3"}
{"ORDERED RESIDUES": "KTINGPGSPHSKAHNQQT", "LABEL VALUE": "zone 3"}
{"ORDERED RESIDUES": "KTFHGSGSPHSKTQNQQT", "LABEL VALUE": "zone 1"}
{"ORDERED RESIDUES": "KTEFGHDSPHKSGQNQQT", "LABEL VALUE": "zone 2"}
{"ORDERED RESIDUES": "KTERASGSPHSKAQNQQT", "LABEL VALUE": "zone 2"}
{"ORDERED RESIDUES": "KTERPSGSPHSKAQNQQT", "LABEL VALUE": "zone 3"}
{"ORDERED RESIDUES": "KTIIGSGSPHSKAQNRHT", "LABEL VALUE": "zone 1"}
{"ORDERED RESIDUES": "KTENGSASPHSKALNQQT (KTFNGSASPHSKALNQQT)", "LABEL VALUE": "zone 1"}
{"ORDERED RESIDUES": "KTINGGGSPHSKAQNQQC", "LABEL VALUE": "zone 3"}
{"ORDERED RESIDUES": "KTVNGSGSPHSKSQNQLT", "LABEL VALUE": "zone 1"}
{"ORDERED RESIDUES": "KTINGGGSPHSKALNQQN", "LABEL VALUE": "zone 3"}
{"ORDERED RESIDUES": "KTENKSGSPHSKAQNQQT", "LABEL VALUE": "zone 3"}
{"ORDERED RESIDUES": "KTVNGHDSPHKSRQSQQT", "LABEL VALUE": "zone 1"}
{"ORDERED RESIDUES": "KTINGHDSPHKSNAWQQT", "LABEL VALUE": "zone 3"}
{"ORDERED RESIDUES": "KAVNGHDSPHKSVQNQQT", "LABEL VALUE": "zone 2"}
{"ORDERED RESIDUES": "KTIDGHDSPHKSGQNQHA", "LABEL VALUE": "zone 1"}
{"ORDERED RESIDUES": "KTINGHDSPHKSRQSQHT", "LABEL VALUE": "zone 1"}
{"ORDERED RESIDUES": "KAINGYDSPHKSGQKQQT", "LABEL VALUE": "zone 3"}
{"ORDERED RESIDUES": "KTEGKHDSPHKSGQNQQT", "LABEL VALUE": "zone 1"}
{"ORDERED RESIDUES": "KTELRHDSPHKSGQNQQT", "LABEL VALUE": "zone 1"}
{"ORDERED RESIDUES": "KAIKGSGSPHSKAQDQQT", "LABEL VALUE": "zone 1"}
{"ORDERED RESIDUES": "KTINGSGSPHSKGHWQQT", "LABEL VALUE": "zone 3"}
{"ORDERED RESIDUES": "KTEKVSGSPHSKAQNQQT", "LABEL VALUE": "zone 3"}
{"ORDERED RESIDUES": "KTNNGHDSPHKSVQNQHT", "LABEL VALUE": "zone 2"}
{"ORDERED RESIDUES": "KTEITSGSPHSKAQNQQT", "LABEL VALUE": "zone 2"}
{"ORDERED RESIDUES": "KSELGHDSPHKSGQNQQT", "LABEL VALUE": "zone 2"}
{"ORDERED RESIDUES": "KTERISGSPHSKAQNQQT", "LABEL VALUE": "zone 3"}
{"ORDERED RESIDUES": "KTERVSGSPHSKAQNQQT", "LABEL VALUE": "zone 3"}
{"ORDERED RESIDUES": "KNVVGHDSPHKSGQNQQT", "LABEL VALUE": "zone 2"}
{"ORDERED RESIDUES": "KNINGGGSPHSKAQNQQT", "LABEL VALUE": "zone 1"}
{"ORDERED RESIDUES": "KTCNKSGSPHSKAQNQQT", "LABEL VALUE": "zone 1"}
{"ORDERED RESIDUES": "KTIEGHDSPHKSGRNQQT", "LABEL VALUE": "zone 2"}
{"ORDERED RESIDUES": "KAISGHDSPHKSGLNQQT", "LABEL VALUE": "zone 1"}
{"ORDERED RESIDUES": "KTFPGSGSPHSKVQNQQT", "LABEL VALUE": "zone 3"}
{"ORDERED RESIDUES": "KAEMGSGSPHSKAQNQQT", "LABEL VALUE": "zone 3"}
{"ORDERED RESIDUES": "KTINGHDSPHKSVQTHQT", "LABEL VALUE": "zone 3"}
{"ORDERED RESIDUES": "KTDAGHDSPHKSGQNQQT", "LABEL VALUE": "zone 2"}
{"ORDERED RESIDUES": "KATNGSGSPHSKAQNHQT", "LABEL VALUE": "zone 2"}
{"ORDERED RESIDUES": "KAINGSGSPHSKAQNLAT", "LABEL VALUE": "zone 3"}
{"ORDERED RESIDUES": "KTINGGGSPHSKSQNQLT", "LABEL VALUE": "zone 3"}
{"ORDERED RESIDUES": "KAINGHDSPHKSGPRQQT", "LABEL VALUE": "zone 1"}
{"ORDERED RESIDUES": "KAINGHDSPHKSAQNQET", "LABEL VALUE": "zone 1"}
{"ORDERED RESIDUES": "KTESAHDSPHKSGQNQQT", "LABEL VALUE": "zone 1"}
{"ORDERED RESIDUES": "KVINGHDSPHKSGQTQQT (peptide inserted in AAV capsid)", "LABEL VALUE": "zone 1"}
{"ORDERED RESIDUES": "KSVNGNGSPHSKAQNQQT", "LABEL VALUE": "zone 2"}
{"ORDERED RESIDUES": "KAIIGHESPHKSGQNQQT", "LABEL VALUE": "zone 3"}
{"ORDERED RESIDUES": "KIINGRDSPHKSGQDQQT", "LABEL VALUE": "zone 3"}
{"ORDERED RESIDUES": "KTVDGHDSPHKSGQKQQT", "LABEL VALUE": "zone 3"}
{"ORDERED RESIDUES": "KTIDGSGSPHSKAQNQQH", "LABEL VALUE": "zone 2"}
{"ORDERED RESIDUES": "KTVNGHDSPHKSGQNHLT", "LABEL VALUE": "zone 1"}
{"ORDERED RESIDUES": "KTVNGHDSPHKSGHTQQT", "LABEL VALUE": "zone 3"}
{"ORDERED RESIDUES": "KTEKTSGSPHSKAQNQQT", "LABEL VALUE": "zone 3"}
{"ORDERED RESIDUES": "KTITGHDSPHKSGQNQWT", "LABEL VALUE": "zone 1"}

This collection of values is drawn from patent US20260250318A1.
